A collection of binders and their measured EC50
Molecular target: HKU5 HR2 peptide (HKU5), A3EXD0
Sequence (A3EXD0 1228-1249 limits assumed): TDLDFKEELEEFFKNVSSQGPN
Assay: peptide ELISA
Express it in µg/mL; write the number only.

binder	measurement unit	EC50
hr2.020 (antibody, V domains shown) VH: EVQLVQSGAEVKKPGESLKISCKGSGYRFASHWIGWVRQMPGKGLQWMGIIYPGDSDTKYSPSFQGQVTISADKSINTVYLHWTSLKASDTAVYYCARRPPHLDGGDSPIRFDHWGQGTLVTVSS VL: QSVLTQPPSASGTPGQRVTISCSGSRSNIGSNDVYWYQQFPGTAPKLLIYRNNQRPSGVPDRFSGSKSGTSASLAISGLRSEDEADYYCATWDDRLTGVFGGGTKLTVV	µg/mL	0.0631

From here, focus on the item given below.
What measured EC50 goes with CV3-25 (antibody) chain 1: QVQLVESGAEVKKPGESLKISCKGSGYTFTRYWIGWVRQMPGKGLEWMGIIYPGDSDTRYSPSFQGHVTISADKSISTAYLQWNSLKASDTAMYYCARLPQYCSNGVCQRWFDPWGQGTLVTVSS chain 2: EIVLTQSPSSVSASVGDRVTITCRASQGISSWLAWYQQKPGKAPKLLIYAASSLQSGVPSRFSGSGSGTDFTLTISSLQPEDFATYYCQQGNSFPYTFGQGTNLEIK ? 1.57
